# assay target: human CB1 receptor (Homo sapiens, UniProt P21554)
# Construct: expressed in transfected cells; host or cells: human embryonic kidney (HEK) cells, Semliki Forest Virus system, membrane preparations
# Sequence (P21554 whole entry): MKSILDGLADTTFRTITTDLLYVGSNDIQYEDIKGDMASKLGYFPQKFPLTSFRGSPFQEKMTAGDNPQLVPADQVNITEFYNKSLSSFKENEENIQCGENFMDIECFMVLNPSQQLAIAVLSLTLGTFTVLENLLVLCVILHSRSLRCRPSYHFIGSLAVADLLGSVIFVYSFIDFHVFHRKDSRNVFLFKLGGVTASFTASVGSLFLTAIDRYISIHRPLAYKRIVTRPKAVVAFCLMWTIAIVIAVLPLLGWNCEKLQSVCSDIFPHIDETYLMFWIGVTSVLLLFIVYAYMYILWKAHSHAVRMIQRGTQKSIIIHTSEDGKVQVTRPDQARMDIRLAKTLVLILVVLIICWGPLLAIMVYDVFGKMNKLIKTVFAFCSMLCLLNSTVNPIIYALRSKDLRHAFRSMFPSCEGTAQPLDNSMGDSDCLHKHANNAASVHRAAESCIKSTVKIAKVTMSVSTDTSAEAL
# assay explanation: CB1 receptor affinity, [3H]-CP-55,940 displacement, HEK cell membranes
# Format: binding
# condition info: 10 μM compound, radioligand [3H]-CP-55,940; read-out: CB1 receptor affinity [% inhibition @ 10 μM]
experimental readout: inhibition at 10 µM
Kindly report the value followed by its unit.

Query: Tell me the measured inhibition at 10 µM of Cc1cc(-c2cc(C(=O)NCc3nc(C(F)(F)F)no3)cnc2OCC(F)(F)F)ccc1Cl , please.
Reply: 34%

Query: Record: O=C(NCc1nc(C(F)(F)F)no1)c1cnc(OCCO)c(-c2ccc(Cl)cc2)c1
Reply: 26%

Query: Record: O=C(NCc1nc(C(F)(F)F)no1)c1cc(-c2ccc(Cl)cc2)c(OCC(F)(F)F)nn1
Reply: 30%

Query: Record: CCc1nc(CNC(=O)c2cnc(OCC3CC3)c(-c3ccc(Cl)cc3)c2)cs1
Reply: 28%
